pKi: −log10 of the molar value.
Recorded pKi for compounds tested on HPK1 (Homo sapiens (Human)), drawn from a number of studies.

Reference set (2 entries):
CN(C)C(=O)c1c(N)ccc(-c2cnc3c(c2Cl)C2(CCCC2)CN3)c1F    8.17
Cc1[nH]c2ncc(-c3ccc(N)c(N4CCOCC4=O)n3)cc2c1C(F)(F)F    7.89

Notebook: COc1cccc(F)c1-c1nccc(C(=O)Nc2cc(F)c3c(cnn3-c3ccncc3C#N)c2N2C[C@@H](N)C[C@H]2CO)n1 , pKi read as > 7.00

Notebook: CN1CCN(c2ccc(-c3n[nH]c4cc(=O)n(-c5cccc6c5CCNC6)cc34)cc2)CC1 , pKi read as ≥ 7.00

Notebook: COc1cccc(F)c1-c1cc2c(N3CCN(c4ccc(Br)cc4)C(=O)C3)n[nH]c2cn1 , pKi read as ≥ 7.00

Notebook: O=C1NCCCN1c1cccc(-c2cnc3c(c2)C2(CC2)CN3)c1 , pKi read as 7.56

Notebook: CCN1CCN(c2ccc(C(=O)Nc3n[nH]c4cnc(-c5c(F)cccc5OC)cc34)cc2)CC1 , pKi read as ≥ 7.00

Notebook: COc1cccc(F)c1-c1nccc(C(=O)Nc2ccc3sc(C)nc3c2N2CCOC[C@@H]2CN)n1 , pKi read as > 7.00

###

Recorded Ki for compounds tested on HPK1 (Homo sapiens (Human), UniProt Q92918), drawn from a number of studies.

COC1CN(Cc2cc(F)c(-c3cc4c(NC(=O)c5ccc(N6CCN(C)CC6)cc5)n[nH]c4cn3)c(F)c2)C1    ≤ 100 nM
CNCc1cc(C)c(-c2cc3c(-c4ccc(C5CC5)cc4)n[nH]c3cc2C#N)c(F)c1    ≤ 100 nM
COc1ccc(-c2ncc3[nH]nc(-c4ccc(N5CCN(C)CC5)cc4)c3n2)c2c1CNCC2    ≤ 100 nM
CN1CCN(c2cc(C#N)cc3c(-c4cnc5c(c4)C4(CC4)CN5)c[nH]c23)C(=O)C1    30.4 nM
CN(C)C(=O)c1cc(CO)cc(-c2cnc3c(c2)C2(CC2)CN3)c1    521 nM

Known value: HPK1 (Homo sapiens (Human), UniProt Q92918) Ki of the compound Cc1ccccc1-c1cc2c(-c3cnn(C)c3)n[nH]c2cc1C#N equals ≤ 100 nM

Known value: HPK1 (Homo sapiens (Human), UniProt Q92918) Ki of the compound COc1cccc(F)c1-c1ncc2[nH]nc(-c3ccsc3)c2n1 equals ≤ 100 nM

Known value: HPK1 (Homo sapiens (Human), UniProt Q92918) Ki of the compound CO[C@H]1C[C@H](NCc2ccc(F)c(-c3cc4c(-c5cnn(C)c5)n[nH]c4cn3)c2C)C1 equals ≤ 100 nM

###

pKi: −log10 of the molar value.
Recorded pKi for molecules tested on HPK1 (Homo sapiens (Human), UniProt Q92918), drawn from a number of studies.

Reference set (3 entries):
COc1cccc(F)c1-c1ncc2[nH]nc(-c3ccccc3C)c2n1    5.30 to 6.30
O=C(c1ccc(-c2cnc3c(c2Cl)C2(CC=CC2)CN3)cc1Cl)N1CCC(O)CC1    6.76
COc1cccc(F)c1-c1cc2c(NC(=O)c3cc(F)cc(F)c3)n[nH]c2cn1    ≥ 7.00

Notebook: CNCc1cc(C)c(-c2cc3c(-c4ccc(C(C)(C)C#N)cc4)n[nH]c3cc2C#N)c(F)c1 , pKi read as ≥ 7.00

###

Recorded pKi for compounds tested on HPK1 (Homo sapiens (Human), UniProt Q92918), drawn from a number of studies.
pKi: −log10 of the molar value.

Reference set (5 entries):
Nc1cc(-c2cnccc2C2CC2)cc2cc(NC(=O)[C@@H]3C[C@@H]3F)nnc12 (racemic)    7.51
COc1cccc(F)c1-c1nccc(C(=O)Nc2ccc3c(c(C)nn3C)c2N2CCC(N(C)C)CC2)n1    > 7.00
N#CC1CCCCN1C(=O)c1cccc(-c2cnc3c(c2)C2(CC2)CN3)c1F (stereo not drawn)    8.08
COc1cccc(F)c1-c1ncc2[nH]nc(-c3cccc(N4CCCC4)c3)c2n1    6.30 to 7.00
Cc1c(CC#N)ccnc1-c1cccc(-c2cnc3c(c2)C2(CC2)CN3)c1F    8.50

With those in mind, consider the next compound.
Known value: HPK1 (Homo sapiens (Human), UniProt Q92918) pKi of the compound COc1cccc(F)c1-c1ncc2[nH]nc(-c3cnn(C)c3)c2n1 equals ≥ 7.00

###

Recorded Ki for molecules tested on HPK1 (Homo sapiens (Human)), drawn from a number of studies.

Reference set (4 entries):
CNCc1cc(C)c(-c2nc3c(-c4ccc(C(=O)NC)nc4)n[nH]c3cc2C#N)c(F)c1    ≤ 100 nM
CNCc1cc(F)c(-c2cc3c(-c4ccnc(N5CCN(C)CC5)c4)n[nH]c3cn2)c(F)c1    ≤ 100 nM
c1ccc2c(-c3cnc4c(c3)C3(CC3)CN4)c[nH]c2c1    125 nM
COc1cccc(F)c1-c1nccc(C(=O)Nc2ccc3sc(C)nc3c2N2C[C@H](NC(C)=O)C[C@H]2CO)n1    < 100 nM

Notebook: CNCc1cc(F)c(-c2ncc3[nH]nc(-c4ccc(N5CCCCC5)nc4)c3n2)c(C(F)(F)F)c1 , Ki read as ≤ 100 nM

Notebook: CCc1cc(N)c2nnc(NC(=O)[C@@H]3C[C@@H]3F)cc2c1 , Ki read as 440 nM

###

Recorded pKi for molecules tested on HPK1 (Homo sapiens (Human)), drawn from a number of studies.
pKi: −log10 of the molar value.
Mark criterion met for reported pKi of 7 or greater; mark criterion not met for anything smaller.

c1ccc2c(c1)nnn2-c1cnc2c(c1)C1(CC1)CN2    criterion not met
O=C(c1cccc(-c2cnc3c(c2Cl)C2(CC2)CN3)c1F)N1CC(O)C1    criterion met
COc1cccc(F)c1-c1nccc(C(=O)Nc2ccc3c(cnn3C)c2N(C)C2CC2)n1    criterion met

q: Check this molecule for pKi at or above 7: CNC1CCCc2c1ccc(F)c2-c1ncc2[nH]nc(-c3ccc(N4CCN(C)CC4)nc3)c2n1 (centres unmarked)
a: criterion met

q: Check this molecule for pKi at or above 7: N#Cc1ccncc1-c1cc(N)c2nnc(NC(=O)[C@@H]3C[C@@H]3F)cc2c1 (racemic)
a: criterion not met

q: Check this molecule for pKi at or above 7: CNC1CCc2c1cc(C)c(-c1cc3c(-c4cnn(C)c4)n[nH]c3cn1)c2F (single isomer, unassigned)
a: criterion met

q: Check this molecule for pKi at or above 7: NC1CCCc2c1cc(F)c(-c1ncc3[nH]nc(-c4ccc(N5CCOCC5)nc4)c3n1)c2F (centres unmarked)
a: criterion met

q: Check this molecule for pKi at or above 7: COc1cccc(F)c1-c1nccc(C(=O)Nc2cc(F)c(CN3CCOCC3)cc2N2C[C@@H]3C[C@H]2CN3)n1
a: criterion met

###

Recorded Ki for compounds tested on HPK1 (Homo sapiens (Human), UniProt Q92918), drawn from a number of studies.

Reference set (3 entries):
CNCc1cc(C)c(-c2nc3c(-c4cnc(N5CCN(C)CC5)nc4)n[nH]c3cc2C#N)c(F)c1    ≤ 100 nM
CNCc1cc(C)c(-c2nccc(C(=O)Nc3ccc4sc(C)nc4c3N3CC[C@@H](N)C3)n2)c(F)c1    < 100 nM
COc1cccc(F)c1-c1nccc(C(=O)Nc2ccc3sc(C)nc3c2N2CC(F)(F)C[C@H]2CO)n1    < 100 nM

Known value: HPK1 (Homo sapiens (Human), UniProt Q92918) Ki of the compound CN1CCN(c2ccc(-c3n[nH]c4ccc(-c5cccc6ncccc56)nc34)cc2)CC1 equals 100 to 500 nM

Known value: HPK1 (Homo sapiens (Human), UniProt Q92918) Ki of the compound COc1ccc(F)c(F)c1-c1ccc2[nH]nc(-c3ccc(N4CCN(C)CC4)cc3)c2n1 equals ≤ 100 nM

Known value: HPK1 (Homo sapiens (Human), UniProt Q92918) Ki of the compound CN(C)C(=O)c1c(N)ccc(-c2cnc3c(c2Cl)C2(CN3)Cc3ccncc3C2)c1F (stereo not shown) equals 15.3 nM

Known value: HPK1 (Homo sapiens (Human), UniProt Q92918) Ki of the compound COc1cccc(F)c1-c1nccc(C(=O)Nc2ccc3sc(C)nc3c2N2C[C@H](NS(C)(=O)=O)C[C@H]2CO)n1 equals < 100 nM

###

Recorded Ki for compounds tested on HPK1 (Homo sapiens (Human)), drawn from a number of studies.

Reference set (5 entries):
CC(=O)NC1CCC2(CNc3ncc(-c4ccc(N)c(C(=O)N(C)C)c4F)c(Cl)c32)C1 (stereo not drawn)    208 nM
Cn1cc(-c2n[nH]c3cnc(-c4c(F)cc(OC(=O)N5CCOCC5)cc4F)cc23)cn1    ≤ 100 nM
Cc1cccc(F)c1-c1ncc2[nH]nc(-c3ccc(N4CCC(O)C4)cc3)c2n1 (stereo not drawn)    ≤ 100 nM
CNCc1cc(C)c(-c2cc3c(-c4ccc(S(=O)(=O)C(C)C)cc4)n[nH]c3cc2C#N)c(F)c1    ≤ 100 nM
CN1CCN(c2ccc(-c3n[nH]c4ccc(-c5cccc(NS(C)(=O)=O)c5F)nc34)cc2)CC1    ≤ 100 nM

With those in mind, consider the next compound.
Known value: HPK1 (Homo sapiens (Human)) Ki of the compound Cc1ccncc1-c1ccc2nnc(NC(=O)C3CC3)cc2c1 equals 510 nM
